Origin of the recorded values: paper PMC4336573

Biological target: T1, Histone H3 K27me3 peptide H3K27me3 peptide (Homo sapiens, UniProt P68431, K27 trimethylation (H3))
T1 chain: QLATKAARKSAPATGGV
Assay: fluorescence anisotropy
measurement label: Kd
Mention the unit after the number when you answer.

Inquiry: I would be grateful if you could share the reported Kd for CBX7 chromodomain (protein) FAVESIRKKRVRKGKVEYLVKWKGWPPKYSTWEPEEHILDPRLVMAYEEKEERDRASGY .
Reply text: 27.7 µM
